# experimental.system: EGF-R Kinase (recombinant enzyme) (Homo sapiens, UniProt P00533)
# Construct: EGFR cDNA encoding amino acids 645 - 1186 preceded by Met-Ala-(His)6
# Sequence (P00533 669-1210): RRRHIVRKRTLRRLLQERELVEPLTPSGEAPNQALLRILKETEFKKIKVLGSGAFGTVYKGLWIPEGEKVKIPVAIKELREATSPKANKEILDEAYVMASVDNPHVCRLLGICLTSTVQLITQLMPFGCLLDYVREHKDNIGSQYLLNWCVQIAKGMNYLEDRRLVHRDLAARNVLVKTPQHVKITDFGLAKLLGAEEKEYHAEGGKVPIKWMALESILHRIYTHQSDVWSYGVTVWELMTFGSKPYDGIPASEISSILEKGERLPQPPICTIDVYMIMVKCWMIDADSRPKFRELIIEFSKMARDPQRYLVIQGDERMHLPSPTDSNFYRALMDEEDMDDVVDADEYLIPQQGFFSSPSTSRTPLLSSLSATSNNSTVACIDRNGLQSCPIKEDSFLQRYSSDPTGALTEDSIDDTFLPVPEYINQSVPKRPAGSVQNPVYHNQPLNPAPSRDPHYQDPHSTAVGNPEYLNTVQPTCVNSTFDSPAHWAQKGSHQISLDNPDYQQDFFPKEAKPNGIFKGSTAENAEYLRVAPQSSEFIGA
# protocol.details: Inhibition of Epidermal Growth Factor Receptor Kinase (EGF-R) using recombinant enzyme
# condition.set: RR-SRC peptide substrate, (a) = average of two tests
measured.parameter: IC50 (nM)
Kindly provide the numeric value in nM only, without the unit symbol.

Below, each entry is followed by its recorded IC50 result.
N#Cc1cnc2c(sc3ccccc32)c1Nc1cccc(Br)c1
1000
COc1cc2cc3c(Nc4ccc(F)c(Cl)c4)c(C#N)cnc3cc2cc1OCCN1CCOCC1
250
N#Cc1cnc2cc3ccccc3cc2c1Nc1ccc(F)c(Cl)c1
5
COc1cc(Nc2c(C#N)cnc3cc4cc(OCCN5CCOCC5)c(OC)cc4cc23)c(C)cc1Cl
3000

Name the recorded IC50 for COc1cc(Nc2c(C#N)cnc3cc4cc(OCCN5CCOCC5)c(OC)cc4cc23)c(Cl)cc1C . 290
